Each entry below carries its reported HUVEC survival, Maximum Inhibition at 50 nM (% Inhibition), N = 1.
target: human KDR (human, UniProt P35968 20-1356); assay: cell-based or functional assay
Sequence (P35968 20-1356): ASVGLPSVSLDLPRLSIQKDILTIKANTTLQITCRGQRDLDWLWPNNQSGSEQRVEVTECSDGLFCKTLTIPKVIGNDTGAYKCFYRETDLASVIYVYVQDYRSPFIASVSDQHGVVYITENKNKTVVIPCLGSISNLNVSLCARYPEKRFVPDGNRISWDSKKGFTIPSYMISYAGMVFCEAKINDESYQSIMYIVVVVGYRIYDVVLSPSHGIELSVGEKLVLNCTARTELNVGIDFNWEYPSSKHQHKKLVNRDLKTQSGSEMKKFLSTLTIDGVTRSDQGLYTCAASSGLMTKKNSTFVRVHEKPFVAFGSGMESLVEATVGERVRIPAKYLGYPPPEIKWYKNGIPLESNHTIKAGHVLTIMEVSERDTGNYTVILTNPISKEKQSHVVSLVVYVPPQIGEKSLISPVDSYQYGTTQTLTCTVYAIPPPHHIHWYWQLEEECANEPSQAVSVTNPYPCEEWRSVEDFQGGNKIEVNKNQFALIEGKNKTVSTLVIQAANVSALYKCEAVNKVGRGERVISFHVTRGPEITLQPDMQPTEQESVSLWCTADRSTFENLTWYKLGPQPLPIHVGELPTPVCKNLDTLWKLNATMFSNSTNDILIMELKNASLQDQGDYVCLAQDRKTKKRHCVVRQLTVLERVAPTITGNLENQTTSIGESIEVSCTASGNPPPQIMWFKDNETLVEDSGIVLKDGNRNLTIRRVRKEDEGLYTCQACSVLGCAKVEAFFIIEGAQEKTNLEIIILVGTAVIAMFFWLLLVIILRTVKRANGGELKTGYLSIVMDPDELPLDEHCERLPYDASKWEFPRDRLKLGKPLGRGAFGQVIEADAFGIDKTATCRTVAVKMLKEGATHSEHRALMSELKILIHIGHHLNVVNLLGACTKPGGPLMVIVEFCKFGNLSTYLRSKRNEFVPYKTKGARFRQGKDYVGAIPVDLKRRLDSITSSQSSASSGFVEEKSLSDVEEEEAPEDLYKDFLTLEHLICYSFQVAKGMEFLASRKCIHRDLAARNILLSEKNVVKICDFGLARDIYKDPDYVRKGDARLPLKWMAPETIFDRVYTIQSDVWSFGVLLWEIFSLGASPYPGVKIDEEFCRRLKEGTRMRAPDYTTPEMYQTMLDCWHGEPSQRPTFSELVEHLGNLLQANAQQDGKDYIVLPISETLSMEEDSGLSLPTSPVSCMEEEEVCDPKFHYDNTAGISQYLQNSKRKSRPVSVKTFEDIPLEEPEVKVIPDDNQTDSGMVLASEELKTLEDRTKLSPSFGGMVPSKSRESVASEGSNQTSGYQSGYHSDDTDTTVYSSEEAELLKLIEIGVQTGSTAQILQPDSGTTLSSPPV
Result Type: HUVEC survival, Maximum Inhibition at 50 nM (% Inhibition), N = 1

{"columns": ["Binder", "Test Result"],
 "data": [
  ["31E11 (antibody, V domains shown, Fully human monoclonal antibody from a XenoMouse hybridoma (IgG2 or IgG4 strain), purified) VH: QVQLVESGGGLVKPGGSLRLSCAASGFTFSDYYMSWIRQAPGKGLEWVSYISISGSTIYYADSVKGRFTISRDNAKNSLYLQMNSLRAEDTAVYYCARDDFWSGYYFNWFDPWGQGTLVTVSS VL: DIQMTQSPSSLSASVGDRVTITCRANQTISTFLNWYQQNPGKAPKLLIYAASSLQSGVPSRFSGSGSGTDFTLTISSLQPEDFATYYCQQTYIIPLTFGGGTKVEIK", "101%"],
  ["29H3 (antibody, V domains shown, Fully human monoclonal antibody from a XenoMouse hybridoma (IgG2 or IgG4 strain), purified) VH: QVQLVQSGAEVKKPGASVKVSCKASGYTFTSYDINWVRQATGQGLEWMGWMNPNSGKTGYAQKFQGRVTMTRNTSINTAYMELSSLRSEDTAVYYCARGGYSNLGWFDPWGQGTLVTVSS VL: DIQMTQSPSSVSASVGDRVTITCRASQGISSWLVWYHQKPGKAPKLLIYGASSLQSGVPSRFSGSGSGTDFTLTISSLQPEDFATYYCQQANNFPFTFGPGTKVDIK", "4%"],
  ["27A3 (antibody, V domains shown, Fully human monoclonal antibody from a XenoMouse hybridoma (IgG2 or IgG4 strain), purified) VH: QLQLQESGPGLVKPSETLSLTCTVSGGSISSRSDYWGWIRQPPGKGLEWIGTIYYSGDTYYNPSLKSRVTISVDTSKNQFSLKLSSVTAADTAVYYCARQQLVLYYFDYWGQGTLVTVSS VL: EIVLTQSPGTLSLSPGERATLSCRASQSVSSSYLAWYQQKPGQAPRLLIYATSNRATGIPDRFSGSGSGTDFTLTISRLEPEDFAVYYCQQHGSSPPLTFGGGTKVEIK", "95%"]
]}
